Numbers sourced from patent US12209102B2.

pIC50 listing for selected compounds.
# target: K-Ras G12D (Homo sapiens, UniProt P01116, G12D)
# Sequence (P01116 1-188 isoform P01116-2 G12D): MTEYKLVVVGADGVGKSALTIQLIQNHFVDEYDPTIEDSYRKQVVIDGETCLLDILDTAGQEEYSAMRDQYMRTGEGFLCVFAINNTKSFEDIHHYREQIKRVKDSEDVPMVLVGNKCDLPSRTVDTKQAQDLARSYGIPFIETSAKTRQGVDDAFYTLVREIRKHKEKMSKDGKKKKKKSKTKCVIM
# assay-info: HTRF resonance energy transfer assay, K-Ras G12D / SOS1 interaction
# condition-details: HTRF assay of Example 5; read-out: IC50 against K-Ras G12D
pIC50: −log10 of the molar value.

- compound: "C=C[C@H]1COc2c(Cl)c(-c3ccc(F)c4sc(N)c(C#N)c34)c(F)c3nc(OC[C@@]45CCCN4C[C@H](F)C5)nc(c23)N1CCC(F)F (single isomer, unassigned) [Compound 906]"
  result: "> 7.00"

Form field pIC50, entry CC(O)C1C(C)Oc2c(Cl)c(-c3ccc(F)c4sc(N)c(C#N)c34)c(F)c3nc(OC[C@@]45CCCN4C[C@H](F)C5)nc(c23)N1CC(F)F (stereo partly shown) [Compound 646] : > 7.00

Form field pIC50, entry N#Cc1c(N)sc2c(F)ccc(-c3c(Cl)c4c5c(nc(OC[C@@]67CCCN6C[C@H](F)C7)nc5c3F)N(C3CCOC3)CC(CF)O4)c12 (stereo partly shown) [Compound 628] : > 7.00

Form field pIC50, entry N#Cc1c(N)sc2c(F)ccc(-c3c(Cl)c4c5c(nc(OC[C@@]67CCCN6C[C@H](F)C7)nc5c3F)N(C3CC3)[C@@H](CNC=O)CO4)c12 [Compound 1084] : > 7.00

Form field pIC50, entry N#Cc1c(N)sc2c(F)ccc(-c3c(Cl)c4c5c(nc(OC[C@@]67CCCN6C[C@H](F)C7)nc5c3F)N(CC3CC3C#N)CCO4)c12 (stereo partly shown) [Compound 738] : > 7.00

Form field pIC50, entry N#Cc1c(N)sc2c(F)ccc(-c3c(Cl)c4c5c(nc(OC[C@@]67CCCN6C[C@H](F)C7)nc5c3F)N(C3CCC(F)(F)C3)CCO4)c12 (stereo partly shown) [Compound 717] : > 7.00

Form field pIC50, entry N#Cc1c(N)sc2c(F)ccc(-c3c(Cl)c4c5c(nc(OC[C@@]67CCCN6C[C@H](F)C7)nc5c3F)N(C3CC(NC=O)C3)CCO4)c12 (stereo partly shown) [Compound 836] : > 7.00

Form field pIC50, entry N#Cc1c(N)sc2c(F)ccc(-c3c(Cl)c4c5c(nc(OC[C@@]67CCCN6C[C@H](F)C7)nc5c3F)N(C3C5CC3N(C=O)C5)CCO4)c12 (stereo partly shown) [Compound 654] : > 7.00

Form field pIC50, entry CS(=O)(=O)N1CCC(N2CCOc3c(Cl)c(-c4ccc(F)c5sc(N)c(C#N)c45)c(F)c4nc(OC[C@@]56CCCN5C[C@H](F)C6)nc2c34)C1 (stereo partly shown) [Compound 966] : > 7.00

Form field pIC50, entry CC(O)C1COc2c(Cl)c(-c3ccc(F)c4sc(N)c(C#N)c34)c(F)c3nc(OC[C@@]45CCCN4C[C@H](F)C5)nc(c23)N1CC1CCNCC1 (stereo partly shown) [Compound 1125] : > 7.00

Form field pIC50, entry N#Cc1c(N)sc2c(F)ccc(-c3c(Cl)c4c5c(nc(OC[C@@]67CCCN6C[C@H](F)C7)nc5c3F)N(CCC(F)F)[C@@H](C3CC3)CO4)c12 [Compound 668] : > 7.00

Form field pIC50, entry N#Cc1c(N)sc2c(F)ccc(-c3c(Cl)c4c5c(nc(OC[C@@]67CCCN6C[C@H](F)C7)nc5c3F)N(CC(F)F)[C@@H](C3CCC3)CO4)c12 [Compound 692] : > 7.00

Form field pIC50, entry N#Cc1c(N)sc2c(F)ccc(-c3c(Cl)c4c5c(nc(OC[C@@]67CCCN6C[C@H](F)C7)nc5c3F)N(C3CCC5(C3)CN(C(=O)C3CC3)C5)CCO4)c12 (stereo partly shown) [Compound 1011] : > 7.00

Form field pIC50, entry CC(O)C1COc2c(Cl)c(-c3ccc(F)c4sc(N)c(C#N)c34)c(F)c3nc(OC[C@@]45CCCN4C[C@H](F)C5)nc(c23)N1CC1(N(C)C)CCC1 (stereo partly shown) [Compound 773] : > 7.00

Form field pIC50, entry N#Cc1c(N)sc2c(F)ccc(-c3c(Cl)c4c5c(nc(OC[C@@]67CCCN6C[C@H](F)C7)nc5c3F)N(C3CCC(OC(F)F)C3)CCO4)c12 (stereo partly shown) [Compound 740] : > 7.00

Form field pIC50, entry CC(O)CC1COc2c(Cl)c(-c3ccc(F)c4sc(N)c(C#N)c34)c(F)c3nc(OC[C@@]45CCCN4C[C@H](F)C5)nc(c23)N1CC(F)F (stereo partly shown) [Compound 659] : > 7.00

Form field pIC50, entry CC1(C)CCC(N2CCOc3c(Cl)c(-c4ccc(F)c5sc(N)c(C#N)c45)c(F)c4nc(OC[C@@]56CCCN5C[C@H](F)C6)nc2c34)CO1 (stereo partly shown) [Compound 603] : > 7.00

Form field pIC50, entry N#Cc1c(N)sc2c(F)ccc(-c3c(Cl)c4c5c(nc(OC[C@@]67CCCN6C[C@H](F)C7)nc5c3F)N(CC(F)F)C(CO)CO4)c12 (stereo partly shown) [Compound 840] : > 7.00
